# Test system: HT29 colon
# protocol: NCI-60 one-dose screen, 48 h
# cond: 10 µM unless noted
This is part of a sample that, as a whole, favours compounds with a hit. Of some 83,000 tested, about 20% had one in any assay. Calls of active or inactive are those of the source. How the source made its calls: active means growth percent below 10; inactive means the rest.
// one of true (active), false (inactive), no free text

{"compound": "C#CCOc1ccc2ncnc(Nc3ccc(NC(=O)CCl)cc3)c2c1", "qualitative_label": "true"}
{"compound": "O=C(O)CNC1=C(Cl)C(=O)c2ccccc2C1=O", "qualitative_label": "false"}
{"compound": "CCn1c(SCC(=O)c2ccc(Br)cc2)nnc1-c1ccncc1", "qualitative_label": "false"}
{"compound": "Clc1ccc2c(c1)N(c1ncnc3ccc(-c4cnc5[nH]ncc5c4)cc13)CC2", "qualitative_label": "false"}
{"compound": "Cc1ccc(C2=Nc3c(N)ncnc3NC(c3ccc4c(c3)OCO4)C2)cc1 (configuration not stated)", "qualitative_label": "false"}
{"compound": "Cc1cc(=O)[nH]c2c(C#N)cnn12", "qualitative_label": "false"}
{"compound": "CCOC(=O)C(=Cc1cccc(Br)c1)C(=O)OCC", "qualitative_label": "false"}
{"compound": "c1ccc(CNc2c3ccccc3nc3ccccc23)cc1", "qualitative_label": "false"}

Q: Record request — test call for CN(C)c1ccc(/C=C/C(=O)c2ccc(-n3cc(CN4CCN(c5cc6c(cc5F)c(=O)c(C(=O)O)cn6C5CC5)CC4)nn3)cc2)cc1
Ans: false

Q: Assay result, entry C/C(=N/O)c1ccc(F)cc1 — outcome?
Ans: false

Q: Dear all, I need the recorded test outcome for CSc1nc2sc3c(c2c(=O)n1-c1ccc([N+](=O)[O-])cc1)CCCCC3 , thank you.
Ans: false

Q: Assay result, entry COCCn1cc(-c2nc(-c3cc4cccnc4n3CCOC)cs2)c2cc(OC)ccc21 — outcome?
Ans: false

---

# System: SR leukemia
# protocol: NCI-60 one-dose screen, 48 h
# cond: 10 µM unless noted
About 83,000 compounds went through this panel and 20% of them were active in at least one assay; those are over-represented in the sample as a whole. Activity calls are given as the source filed them. How the source made its calls: active means growth percent below 10; inactive means the rest.
I would appreciate it if you answered using one of these outcomes: 1 (yes) for active, 0 (no) for inactive

{"query_smiles": "CCN(CC)CCNC(=O)c1cn2ncnc(Oc3ccc(NC(=O)Nc4ccc(Cl)c(C(F)(F)F)c4)c(F)c3)c2c1C", "qualitative_label": "1 (yes)"}
{"query_smiles": "COc1cc(CNC(=O)/C=C/C=C/c2ccc3c(c2)OCO3)ccc1OCc1cn(-c2ccc(C)c(C)c2)nn1", "qualitative_label": "0 (no)"}

Q: Write down the call the test reported for this molecule. Item: O=C(NCCCN1CCOCC1)c1cccc(N2C(=O)/C(=C/c3ccc(F)cc3)SC2=S)c1
Ans: 0 (no)

Q: Recorded test outcome, item COc1cc(CNS(=O)(=O)c2ccc(C)cc2)ccc1OCc1cn(-c2ccc(Br)cc2)nn1
Ans: 0 (no)

---

# Tested on: NCI-H322M lung
# protocol: NCI-60 one-dose screen, 48 h (100 = growth as untreated, 0 = no growth, -100 = all killed)
# cond: 10 µM unless noted
Compounds without any hit were thinned out: in the full panel of roughly 83,000, 20% have a hit.
readout_type: growth (%)
Numbers only, in %.

See these solved cases before continuing.
{"compound": "CCOC(=O)CSc1ncnc2c1c(-c1ccccc1)c(-c1ccccc1)n2-c1ccc(C)cc1", "units_of_measure": "%", "growth": 94.4}
{"compound": "O=C1/C(=C/c2ccc(Cl)cc2)COc2ccc(O)cc21", "units_of_measure": "%", "growth": 94.8}

Count: 2. Required value per item: growth.
1. Fc1ccc(Nc2nc3nonc3nc2Nc2ccc(I)cc2)cc1
2. CSc1nc2sc3c(c2c(=O)n1-c1ccc([N+](=O)[O-])cc1)CCCCC3

Ans:
[1.66, 88.8]

Each compound below has a recorded value; state its growth.
1. CCc1n(Cc2ccc3ccccc3c2)cc[n+]1Cc1ccc2ccccc2c1
2. O=C(CI)NC1Oc2ccccc2-c2oc(=O)c(-c3ccccc3)cc21 (stereo not drawn)
3. O=C1Nc2ccc(Br)cc2/C1=N/c1n[nH]c(=S)s1
4. CC(C)=NNc1ccccn1
5. COc1cc(NC(C)CCCNC(C)C)c2ncccc2c1OC (stereo not drawn)
6. CC(C)n1cnc2c(=S)nc[nH]c21
7. CC(O)c1cnc(/C=C2\SC(=S)N(Cc3ccccc3)C2=O)s1 (stereo not drawn)

Ans:
44.3
105
107
19.4
99.7
112
87.8

---

# Test system: SW-620 colon
# protocol: NCI-60 one-dose screen, 48 h (100 = growth as untreated, 0 = no growth, -100 = all killed)
# cond: 10 µM unless noted
Compounds without any hit were thinned out: in the full panel of roughly 83,000, 20% have a hit.
growth of 50% or higher: Met. Under 50%: Not met.

Some solved cases for reference:
{"query_smiles": "COc1ccc2cc(C(=O)c3coc4ccc(O)cc34)ccc2c1", "qualitative_label": "Met"}
{"query_smiles": "COc1ccc(Cc2cc(-c3ccccc3)nn(Cc3ccccc3)c2=O)cc1OC", "qualitative_label": "Not met"}
{"query_smiles": "O=C(c1cc2ccccc2o1)c1nn(-c2ccccc2)/c(=N/N=Cc2cn(-c3ccccc3)nc2-c2cc3ccccc3oc2=O)s1", "qualitative_label": "Met"}

Q: Quick check: does COc1cc(CNS(=O)(=O)c2ccc(C)cc2)ccc1OCc1cn(-c2ccc(F)cc2)nn1 have growth greater than or equal to 50%?
Ans: Met

Q: API: above_or_equal(metric=growth, cutoff=50%) for item Clc1ccc2c(c1)N(c1ncnc3ccc(-c4cnc5[nH]ncc5c4)cc13)CC2
Ans: Not met

---

# Test system: A498 renal
# protocol: NCI-60 one-dose screen, 48 h (100 = growth as untreated, 0 = no growth, -100 = all killed)
# cond: 10 µM unless noted
This is part of a sample that, as a whole, favours compounds with a hit. Of some 83,000 tested, about 20% had one in any assay.
// label = fulfilled if growth is not less than 90%, otherwise not fulfilled

# example entries with known answers
{"compound": "Cc1nn(-c2ccccc2)c(Oc2ccccn2)c1-c1nc2ccccc2s1", "qualitative_label": "fulfilled"}
{"compound": "C=C(C)[C@@H]1CC[C@]2(C(=O)N3CCN(C)CC3)CC[C@]3(C)[C@H](CC[C@@H]4[C@@]5(C)CC(=C/c6ccncc6)/C(=N/O)C(C)(C)[C@@H]5CC[C@]43C)[C@@H]12", "qualitative_label": "fulfilled"}
{"compound": "CS(=O)(=O)c1cccc(-c2c(-c3cccc(OS(N)(=O)=O)c3)nc3sccn23)c1", "qualitative_label": "fulfilled"}
{"compound": "COC(=O)/C(CCC=C(C)C)=C1\\[C@@H](OC(C)=O)C[C@@]2(C)[C@H]1C[C@@H](O)[C@H]1[C@@]3(C)CC[C@H](NCCN)[C@@H](C)[C@@H]3CC[C@@]12C", "qualitative_label": "fulfilled"}
{"compound": "Clc1ccc(Sc2cnc(-c3ccccc3)o2)cc1", "qualitative_label": "not fulfilled"}

Q: Could you tell me if the measured growth of CC(C)OC(=O)c1ccc2[nH]c(O)c(C(=Nc3ccc(N(C)C(=O)CN4CCN(C)CC4)cc3)c3ccccc3)c2c1 reaches 90% or more?
Ans: not fulfilled

Q: Please check the record Cc1ccccc1NC(=O)c1sc2nc(C)c(C(=O)/C=C/c3ccccc3)cc2c1N and state if its growth is at or above 90%.
Ans: not fulfilled

Q: Would you say Cn1cccc1C(=O)C1C(c2cccc([N+](=O)[O-])c2)C2C3CCCCC3CN2C12C(=O)Nc1ccc(Cl)cc12 (stereo not drawn) shows growth at minimum 90%?
Ans: not fulfilled

---

# Test system: U251 CNS
# protocol: NCI-60 one-dose screen, 48 h
# cond: 10 µM unless noted
The panel holds about 83,000 compounds, 20% with a hit somewhere; the sample as a whole holds those more often. The source made the active and inactive calls. The calls were made as follows: active = growth percent below 10; inactive = the rest.
Use one of these outcomes when replying: True = active, False = inactive

Q: Lab log entry: O=C(NCCCCNC(=O)OCc1ccc2c(Cl)cc(Cl)c(O)c2n1)OCc1ccc2c(Cl)cc(Cl)c(O)c2n1 — outcome as called in the assay?
Ans: True

Q: Could you please tell me the result logged for CNC(=O)c1cc(Oc2ccc3nc(NC(C)=O)sc3c2)ccn1 in this assay?
Ans: False

Q: Please state the recorded outcome for this molecule: COc1ccc(C/C(C)=C(/c2ccc(OCCN3CCCCC3)cc2)c2ccc(OC(=O)NCc3ccccc3)cc2)cc1
Ans: True

Q: Which outcome was assigned to C=C(C)[C@@H]1CC[C@]2(C(=O)N3CCN(C)CC3)CC[C@]3(C)[C@H](CC[C@@H]4[C@@]5(C)CC(=C/c6ccncc6)/C(=N/O)C(C)(C)[C@@H]5CC[C@]43C)[C@@H]12 in this test?
Ans: False

Q: Answer briefly: the call reported for COc1ccc(CC(C#N)c2cc3ccccc3[nH]2)cc1 (stereo not drawn) in this assay.
Ans: False

Q: Recorded test outcome, item Cc1ccc(C2=Nc3c(N)ncnc3NC(c3ccc4c(c3)OCO4)C2)cc1 (stereo not drawn)
Ans: False

Q: # lookup: test call for CCCCCC(=O)OCC(=O)O[C@@H]1C[C@]2(C(C)C)O[C@@]1(C)[C@@H]1CC[C@@H](C)[C@H]1[C@@H]2OC(=O)/C=C/c1ccccc1
Ans: False

Q: Per the records of this test, what outcome belongs to CC(O)c1cnc(/C=C2\SC(=S)N(Cc3ccccc3)C2=O)s1 (stereo not drawn) ?
Ans: False
